ASSAY_METHOD_TEXT: Oral bioavailability in dog at 5 mg/kg
Type: ADME, organism-based, Canis lupus familiaris
EXPERIMENTAL_SETUP: in vivo
READOUT_NAME: bioavailability (%)

INSERT INTO assay_data (compound, test_value) VALUES
  ('Cc1nnn(C)c1-c1cnc2c3ccc(C(C)(C)O)cc3n([C@H](c3ccccc3)C3CCOCC3)c2c1 [EZOBRESIB]', 59);

###

STUDY_TARGET: Bromodomain-containing protein 4 (Homo sapiens)
ASSAY_METHOD_TEXT: Inhibition of human BRD4 (1 to 477 residues) measured after 60 mins by TR-FRET assay
pIC50: −log10 of the molar value.
Criterion: pIC50 meeting or surpassing 7. Met: class 1. Not met: class 0.

INSERT INTO results (smi, study_target, group) VALUES
  ('Cc1noc(C)c1-c1cc(C(N)=O)c2c3ccc(C(C)(C)O)cc3n([C@H](c3ccccc3)C3CCOCC3)c2c1', 'Bromodomain-containing protein 4 (Homo sapiens)', 'class 1'),
  ('Cc1nnn(C)c1-c1cc(C(N)=O)c2c(c1)c1ccc(C(=O)N3C[C@@H](C)O[C@@H](C)C3)cc1n2CC1CC1', 'Bromodomain-containing protein 4 (Homo sapiens)', 'class 1'),
  ('Cc1noc(C)c1-c1cc(C(N)=O)c2c(c1)c1ccc(C(=O)N3C[C@@H](C)O[C@@H](C)C3)cc1n2CC1CC1', 'Bromodomain-containing protein 4 (Homo sapiens)', 'class 1'),
  ('Cc1noc(C)c1-c1cc(C(N)=O)c2[nH]c3cc(C(=O)N4CCOCC4)ccc3c2c1', 'Bromodomain-containing protein 4 (Homo sapiens)', 'class 0'),
  ('Cc1noc(C)c1-c1cc(C(N)=O)c2c(c1)c1ccc(C(=O)N3CCOCC3)cc1n2CC1CC1', 'Bromodomain-containing protein 4 (Homo sapiens)', 'class 1'),
  ('Cc1noc(C)c1-c1cc(C(N)=O)c2c3ccc(C(C)(C)O)cc3n(C(c3ccccc3)c3ccccc3)c2c1', 'Bromodomain-containing protein 4 (Homo sapiens)', 'class 1'),
  ('Cc1noc(C)c1-c1cc(C(N)=O)c2c3cc(C(=O)N4C[C@@H](C)O[C@@H](C)C4)ccc3n(Cc3ccccc3)c2c1', 'Bromodomain-containing protein 4 (Homo sapiens)', 'class 1'),
  ('Cc1noc(C)c1-c1cc(C(N)=O)c2c3cc(C(C)(C)O)ccc3n(Cc3ccccc3)c2c1', 'Bromodomain-containing protein 4 (Homo sapiens)', 'class 1'),
  ('Cc1noc(C)c1-c1cc(C(N)=O)c2c3ccc(C(C)(C)O)cc3n(CC3CCOCC3)c2c1', 'Bromodomain-containing protein 4 (Homo sapiens)', 'class 1'),
  ('Cc1noc(C)c1-c1cnc2c3ccc(C(C)(C)O)cc3n([C@H](c3ccccc3)C3CCOCC3)c2c1', 'Bromodomain-containing protein 4 (Homo sapiens)', 'class 1'),
  ('Cc1n[nH]c(C)c1-c1cc(C(N)=O)c2c(c1)c1ccc(C(=O)N3C[C@@H](C)O[C@@H](C)C3)cc1n2CC1CC1', 'Bromodomain-containing protein 4 (Homo sapiens)', 'class 0'),
  ('Cc1oncc1-c1cc(C(N)=O)c2c(c1)c1ccc(C(=O)N3C[C@@H](C)O[C@@H](C)C3)cc1n2CC1CC1', 'Bromodomain-containing protein 4 (Homo sapiens)', 'class 0'),
  ('Cc1nnn(C)c1-c1cnc2c3ccc(C(C)(C)O)cc3n([C@H](c3ccccc3)C3CCOCC3)c2c1', 'Bromodomain-containing protein 4 (Homo sapiens)', 'class 1'),
  ('Cc1noc(C)c1-c1cc(C(N)=O)c2c3ccc(C(C)(C)O)cc3n([C@H](c3ccc(F)cc3)C3CCOCC3)c2c1', 'Bromodomain-containing protein 4 (Homo sapiens)', 'class 1'),
  ('Cc1noc(C)c1-c1cc(C(N)=O)c2c3ccc(C(C)(C)O)cc3n([C@@H](c3ccccc3)C3CCOCC3)c2c1', 'Bromodomain-containing protein 4 (Homo sapiens)', 'class 1');
